# ASSAY SYSTEM: T1, biotinylated recombinant human Angiopoietin-2 (R&D Systems, Inc. Cat. No. BT623) (human, UniProt O15123 19-496, limits assumed, biotinylated (sites not given))
# T1 construct: Bought reagent; also called Ang-2; Ang2
# T1 sequence (looked up): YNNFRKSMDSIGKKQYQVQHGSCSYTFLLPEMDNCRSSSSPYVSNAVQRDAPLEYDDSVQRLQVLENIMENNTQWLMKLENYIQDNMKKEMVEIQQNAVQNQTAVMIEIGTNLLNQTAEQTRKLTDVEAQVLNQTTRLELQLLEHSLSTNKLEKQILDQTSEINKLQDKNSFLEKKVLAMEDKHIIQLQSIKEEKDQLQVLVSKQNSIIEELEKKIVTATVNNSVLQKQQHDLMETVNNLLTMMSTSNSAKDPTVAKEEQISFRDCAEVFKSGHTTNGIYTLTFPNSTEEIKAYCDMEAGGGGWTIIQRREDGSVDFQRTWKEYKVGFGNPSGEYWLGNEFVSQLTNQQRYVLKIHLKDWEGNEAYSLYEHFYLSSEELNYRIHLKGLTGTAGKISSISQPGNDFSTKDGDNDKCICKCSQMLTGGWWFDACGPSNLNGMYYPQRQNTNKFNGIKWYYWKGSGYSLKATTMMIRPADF
# MEASUREMENT NOTES: competitive binding ELISA: biotinylated Angiopoietin-2 on plate-coated Tie-2/Fc, purified mAb
MEASURED ENDPOINT: Efficacy (ratio of bound Angiopoietin-2 with mAb (30 µg/ml) versus without mAb)
Quick note: number first, unit second.

BINDER	MEASURED RESULT
anti-Ang-2 monoclonal antibody 5.86.1 (antibody, V domains shown, Fully human IgG kappa from XenoMouse hybridoma (strains XMG2 and XMG4); IgG purified from hybridoma supernatant; also called mAb 5.86.1) VH: QVQLVQSGAEVKKPGASVKVSCKASGYTFTGYHMYWVRQAPGQGLEWLGWINPNSGGTNYAQKFQGRVTMTRDTSISTAYMELSRLRSDDTAVYYCVRDQGIAAAGPFDYWCQGTLVTVSS VL: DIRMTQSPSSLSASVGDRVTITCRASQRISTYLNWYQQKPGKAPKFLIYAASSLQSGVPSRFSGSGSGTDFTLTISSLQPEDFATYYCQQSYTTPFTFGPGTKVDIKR	0.384 ratio

Enquiry: Provide one value: measured Efficacy (ratio of bound Angiopoietin-2 with mAb (30 µg/ml) versus without mAb) of anti-Angiopoietin-2 monoclonal antibody 3.19.3 (antibody, V domains shown, Fully human IgG kappa from XenoMouse hybridoma (strains XMG2 and XMG4); IgG purified from hybridoma supernatant) VH: QVQLVESGGGVVQPGRSLRLSCAASGFTFTNYGMHWGRQAPGKGLEWVAVISHDGNNKYYVDSVKGRFTISRDNSKNTLYLQMNSLRAEDTAVYYCAREGIDFWSGLNWFDPWGQGTLVTVSS VL: EIVLTQSPGTLSLSPGERATLSCRASQSITGSYLAWYQQKPGQAPRLLICGASSWATGIPDRFSGSGSGTDFTLTISRLEPEDFAVYYCQQYSSSPITFGQGTRLEIKR
Return: 0.395 ratio

Enquiry: Answer with the recorded Efficacy (ratio of bound Angiopoietin-2 with mAb (30 µg/ml) versus without mAb) for the binder listed here: anti-Ang-2 monoclonal antibody 5.28.1 (antibody, V domains shown, Fully human IgG kappa from XenoMouse hybridoma (strains XMG2 and XMG4); IgG purified from hybridoma supernatant; also called mAb 5.28.1) VH: EVQLVESGGIVVQPGGSLRLSCAASGFTFDDYTMHWVRQTPGKGLEWVSLISWDGGSTYYADSVKGRFTISRDNSKNSLYLQMNSLRTEDTALYYCAKDIDIAVAGTGFDHWGQGTLVTVSS VL: EIVMTQSPATLSVSPGERATLSCRASQSVTSNLAWYQQKPGQAPRLLIYGALIRATGIPARFSGSGSGTEFTLTISSLQSEDFAVYYCQQYNNWPFTFGPGTKVDIKR
Return: 0.389 ratio
